Test system: HEK293T (UBE3A T485A transfected, BAR Wnt reporter)
assay name: Wnt reporter firefly/Renilla luciferase ratio relative to plate median (fold (linear ratio)); higher = more Wnt/beta-catenin reporter activation
condition notes: concentration: 100 uM; 24 h
Whole data set: some 1,100 compounds, median “Wnt reporter firefly/Renilla luciferase ratio relative to plate median” near 1.1, cut for the highest 2% near 1.6. The full list was thinned out, with the highest values kept by preference.
measurement name: Wnt reporter firefly/Renilla luciferase ratio

| compound | tested system | recorded measurement |
| --- | --- | --- |
| CCO[Si](CCCNC(N)=O)(OCC)OCC [1-[3-(Triethoxysilyl)propyl]urea] | HEK293T (UBE3A T485A transfected, BAR Wnt reporter) | 1.66 |
| CC[C@@H]1C[C@H](N(Cc2cc(C(F)(F)F)cc(C(F)(F)F)c2)C(C)=O)c2cc(C(F)(F)F)ccc2N1C(=O)OC(C)C | HEK293T (UBE3A T485A transfected, BAR Wnt reporter) | 1.01 |
| CCCCCC(=O)O | HEK293T (UBE3A T485A transfected, BAR Wnt reporter) | 1.27 |
| C/C=C/c1ccc(OC)cc1 [(E)-Anethole] | HEK293T (UBE3A T485A transfected, BAR Wnt reporter) | 1.58 |
| O=C(O)c1cccnc1 | HEK293T (UBE3A T485A transfected, BAR Wnt reporter) | 1.27 |
| C#C[C@]1(O)CC[C@H]2[C@@H]3CCc4cc(O)ccc4[C@H]3CC[C@@]21C | HEK293T (UBE3A T485A transfected, BAR Wnt reporter) | 0.42 |
| Oc1ccccc1 | HEK293T (UBE3A T485A transfected, BAR Wnt reporter) | 1.35 |
| CCC(C)c1ccccc1O (stereo not drawn) | HEK293T (UBE3A T485A transfected, BAR Wnt reporter) | 1.14 |
| CO[C@H]1/C=C/O[C@@]2(C)Oc3c(C)c(O)c4c(O)c(c(/C=N/N5CCN(C)CC5)c(O)c4c3C2=O)NC(=O)/C(C)=C\C=C\[C@H](C)[C@H](O)[C@@H](C)[C@@H](O)[C@@H](C)[C@H](OC(C)=O)[C@@H]1C | HEK293T (UBE3A T485A transfected, BAR Wnt reporter) | 0.362 |
| CC(C)CCCCCCOC(=O)c1ccc(C(=O)OCCCCCCC(C)C)c(C(=O)OCCCCCCC(C)C)c1 [Triisononyl trimellitate] | HEK293T (UBE3A T485A transfected, BAR Wnt reporter) | 1.34 |
| CNCc1ccc(NC(=O)c2c[nH]c3c2C(=O)CCC3)cc1 | HEK293T (UBE3A T485A transfected, BAR Wnt reporter) | 0.318 |
| CC(C)(c1ccc(O)cc1)c1ccc(O)cc1 | HEK293T (UBE3A T485A transfected, BAR Wnt reporter) | 0.302 |
| Cl.NCC1(Cc2noc(=O)[nH]2)CCCCC1 | HEK293T (UBE3A T485A transfected, BAR Wnt reporter) | 1.16 |
| CNC(=O)[C@H]1O[C@@H](n2cnc3c(NCc4cc(Cl)ccc4OCc4cc(C)no4)ncnc32)[C@H](O)[C@@H]1N | HEK293T (UBE3A T485A transfected, BAR Wnt reporter) | 1.06 |
| Cc1cn([C@H]2C=C[C@@H](CO)O2)c(=O)[nH]c1=O | HEK293T (UBE3A T485A transfected, BAR Wnt reporter) | 1.62 |
| CCCC(=O)O | HEK293T (UBE3A T485A transfected, BAR Wnt reporter) | 1.62 |
| O=C(CCCN1CCC(O)(c2ccc(Cl)cc2)CC1)c1ccc(F)cc1 | HEK293T (UBE3A T485A transfected, BAR Wnt reporter) | 0.572 |
| CN1CCC[C@H]1c1cccnc1 | HEK293T (UBE3A T485A transfected, BAR Wnt reporter) | 1.18 |

====

Test system: HEK293T (UBE3A T485A transfected, BAR Wnt reporter)
assay name: Wnt reporter firefly/Renilla luciferase ratio relative to plate median (fold (linear ratio)); higher = more Wnt/beta-catenin reporter activation
condition notes: concentration: 0.1 uM; 24 h
Whole data set: some 1,100 compounds, median “Wnt reporter firefly/Renilla luciferase ratio relative to plate median” near 1.1, cut for the highest 2% near 1.6. What follows is part of a selection rich in the highest values, with near analogues and random picks from the rest.
measurement name: Wnt reporter firefly/Renilla luciferase ratio

| compound | recorded measurement |
| --- | --- |
| CC(=O)OCCC(C)C [3-Methylbutyl acetate] | 1.41 |
| Cc1cccc(C)c1O [2,6-Dimethylphenol] | 1.32 |
| CCCCCCC(CCCCCCCCCCC(=O)OCC(COC(C)=O)OC(C)=O)OC(C)=O (centres undefined) [Grinstad Soft-N-Safe] | 0.94 |
| NC(=O)N/N=C/c1ccc([N+](=O)[O-])o1 [Nitrofurazone] | 1.22 |
| Cl.Clc1cc(Cl)c2c(c1)N=C1CCCCCN1C2 | 0.996 |
| O=c1c(O)c(-c2ccc(O)c(O)c2)oc2cc(O)cc(O)c12 [Quercetin] | 1.1 |
| O=c1c(-c2ccc(O)cc2)coc2cc(O)cc(O)c12 [Genistein] | 1.45 |
| C=C(C)C(=O)OCCC(F)(F)C(F)(F)C(F)(F)C(F)(F)C(F)(F)C(F)(F)F [Tridecafluorohexylethyl methacrylate] | 1.03 |
| O=c1c(-c2ccc(O)cc2)coc2cc(O)ccc12 [Daidzein] | 1.11 |

====

System: HEK293T (UBE3A T485A transfected, BAR Wnt reporter)
assay name: Wnt reporter firefly/Renilla luciferase ratio relative to plate median (fold (linear ratio)); higher = more Wnt/beta-catenin reporter activation
condition notes: concentration: 10 uM; 24 h
Over roughly 1,100 compounds, “Wnt reporter firefly/Renilla luciferase ratio relative to plate median” has its median near 1.1; the highest 2% begin near 1.6. Only a selection was taken, and the highest values are over-represented in it overall.
# Wnt reporter firefly/Renilla luciferase ratio listing for each entry below
measurement name: Wnt reporter firefly/Renilla luciferase ratio

| molecule | recorded measurement |
| --- | --- |
| O=C(O)C1(C(=O)Nc2ccc(Cl)cc2Cl)CC1 [Cyclanilide] | 1.53 |
| Cc1oc2c(NC(=O)c3c(Cl)cccc3Cl)cccc2c1C(C)(C)O | 0.7 |
| Cl.Nc1ccn([C@@H]2O[C@H](CO)[C@@H](O)[C@@H]2O)c(=O)n1 [Cytarabine hydrochloride] | 0.171 |
| CCCCCCCCCCCCc1ccccc1S(=O)(=O)O [Dodecylbenzenesulfonic acid] | 1.2 |
| CC1(C)C(=O)N(Cl)C(=O)N1Cl [1,3-Dichloro-5,5-dimethylhydantoin] | 0.887 |
| O=C(NO)C1(NS(=O)(=O)c2ccc(Oc3ccc(F)cc3)cc2)CCOCC1 | 0.736 |
| Nc1ncn([C@@H]2O[C@H](CO)[C@@H](O)[C@H]2O)c(=O)n1 [5-azacytidine] | 0.213 |
| CC(C)c1cccc(C(C)C)c1N1C(=O)c2ccc(O)cc2C1=O | 0.259 |
| CC(=O)c1ccc2c(c1)[C@H](NC(=O)c1ccc(F)cc1)[C@@H](O)C(C)(C)O2 [Carabersat] | 1.04 |

====

# Wnt reporter firefly/Renilla luciferase ratio listing for each entry below
System: HEK293T (UBE3A T485A transfected, BAR Wnt reporter)
assay name: Wnt reporter firefly/Renilla luciferase ratio relative to plate median (fold (linear ratio)); higher = more Wnt/beta-catenin reporter activation
condition notes: concentration: 0.1 uM; 24 h
Whole data set: some 1,100 compounds, median “Wnt reporter firefly/Renilla luciferase ratio relative to plate median” near 1.1, cut for the highest 2% near 1.6. Shown is part of a subset that was picked to be rich in the highest values.
measurement name: Wnt reporter firefly/Renilla luciferase ratio

| molecule | recorded measurement |
| --- | --- |
| O=[N+]([O-])C(CO)(CO)CO [2-(Hydroxymethyl)-2-nitro-1,3-propanediol] | 0.982 |
| CCOC(=O)COc1ccc2c(c1)CC(NCC(O)c1cccc(Cl)c1)CC2.Cl (stereo not drawn) | 1.06 |
| CN1C(=O)N(c2ccccc2Br)Cc2cnc(Nc3ccc4c(c3)OCC(CO)O4)nc21 (stereo not drawn) | 0.694 |
| CC/C(=C(/CC)c1ccc(O)cc1)c1ccc(O)cc1 [Diethylstilbestrol] | 0.897 |
| Cc1cc2c(cc1C(F)(F)F)N(C(=O)Nc1ccc(Oc3cccnc3C)nc1)CC2.Cl | 1.03 |
| COC(=O)CC(=O)OC [Dimethyl malonate] | 1.02 |
| Nc1nc(=O)c2nc(CNc3ccc(C(=O)N[C@@H](CCC(=O)O)C(=O)O)cc3)cnc2[nH]1 [Folic acid] | 1.38 |
| CCCc1ccccc1 [Propylbenzene] | 0.987 |

====

System: HEK293T (UBE3A T485A transfected, BAR Wnt reporter)
assay name: Wnt reporter firefly/Renilla luciferase ratio relative to plate median (fold (linear ratio)); higher = more Wnt/beta-catenin reporter activation
condition notes: concentration: 10 uM; 24 h
In all, about 1,100 compounds were measured (“Wnt reporter firefly/Renilla luciferase ratio relative to plate median”: median about 1.1, highest 2% from about 1.6 on). What follows is part of a selection rich in the highest values, with near analogues and random picks from the rest.
measurement name: Wnt reporter firefly/Renilla luciferase ratio

| molecule | recorded measurement |
| --- | --- |
| CCN(CC)CCNc1ccc(CNC=O)c2sc3ccc(OC)cc3c(=O)c12 | 0.373 |
| O=C(O)c1ccccc1C(=O)OCc1ccccc1 [Monobenzyl phthalate] | 1.31 |
| CCCCCCC(C=O)=Cc1ccccc1 | 0.822 |
| CCCCC(CC)COC(=O)CCCCC(=O)OCc1ccccc1 (stereo not drawn) [Benzyloctyl adipate] | 1.13 |
| CCCCc1oc2ccccc2c1C(=O)c1cc(I)c(OCCN(CC)CC)c(I)c1.Cl [Amiodarone hydrochloride] | 1 |
| O=C(CCCCCCC(=O)Nc1ccccc1)NO [Vorinostat (SAHA)] | 3.08 |
| CC1CCC(NC(=O)N(CCCl)N=O)CC1 (stereo not drawn) | 0.864 |
| CC(C)(c1ccc(O)cc1)c1ccc(O)cc1 | 0.924 |
| CC[C@H](c1ccc(O)cc1)[C@@H](CC)c1ccc(O)cc1 | 0.711 |
| Nc1ccc(C(=O)O)cc1 | 0.948 |
| CN(C)[C@@H]1C(O)=C(C(N)=O)C(=O)[C@@]2(O)C(O)=C3C(=O)c4c(O)cccc4[C@@](C)(O)[C@H]3[C@H](O)[C@@H]12.Cl [Oxytetracycline hydrochloride] | 0.562 |
| O=C([N-]S(=O)(=O)/C=C/c1ccccc1)c1ccc(F)cc1Cl.[Na+] | 0.657 |
| c1ccc2[nH]c(-c3cscn3)nc2c1 | 1.27 |
| C[C@]12CC[C@@H]3c4ccc(O)cc4CC[C@H]3[C@@H]1CC[C@@H]2O | 0.591 |
| O=C(CCCN1CCC(O)(c2ccc(Cl)cc2)CC1)c1ccc(F)cc1 | 0.916 |
| CN1C(=O)N(c2ccccc2Br)Cc2cnc(Nc3ccc4c(c3)OCC(CO)O4)nc21 (stereo not drawn) | 1.19 |
| O=C1c2c(O)cccc2Cc2cccc(O)c21 | 1.46 |
| O=[N+]([O-])C(CO)(CO)CO [2-(Hydroxymethyl)-2-nitro-1,3-propanediol] | 1.27 |
